Species on record: Homo sapiens
assay: Selectivity ratio of Ki for displacement of [3H]-CP55940 from human recombinant CB1 receptor expressed in HEK293 cell membrane to Ki for displacement of [3H]-CP55940 from human recombinant CB2 receptor expressed in HEK293 cell membrane
Kindly state Selectivity ratio for each of the entries shown.
Give bare numbers.

Study these solved cases before continuing.
| smiles-notation | recorded-number |
| --- | --- |
| CCCCCc1cc(OC)cc(OCCCCCCCCCCC(=O)NC2CC2)c1 | 2.9 |
| CCCCCc1cc(OCCCC)cc(OCCCCCCCCCCC(=O)NC2CC2)c1 | 0.5 |
| CCCCCc1cc(OC)cc(OCCCCCCCCCCC(=O)NCCO)c1 | 2.6 |
| CCCCCc1cc(OC)cc(OCCCCCCCCCCC(=O)NCC(F)(F)F)c1 | 3.3 |
| CCCCCc1cccc(OCCCCCCCCCCC(=O)NC2CC2)c1 | 1.7 |
| CCCCCc1cc(O)cc(OCCCCCCCCCCC(=O)NC2CC2)c1 | 0.4 |
| CCCCCCc1ccc(OCCCCCCCCCCC(=O)NCC2CC2)cc1OC | 66.6 |
| C=CCOc1cc(CCCCC)cc(OCCCCCCCCCCC(=O)NC2CC2)c1 | 2.9 |
| CCCCCc1cc(OC)cc(OCCCCCCCCCCC(=O)NC(CO)CO)c1 | 0.6 |
| CCCCCc1cc(OC)cc(OCCCCCCCCCCC(=O)Nc2ccccc2)c1 | 2.7 |

With those in mind, consider the next compound.
// Selectivity ratio lookup, key: `CCCCCc1cc(OCC)cc(OCCCCCCCCCCC(=O)NC2CC2)c1` 1.8

----------
system-tested: Transient receptor potential cation channel subfamily A member 1 (Rattus norvegicus, UniProt Q6RI86)
Sequence (Q6RI86 whole entry): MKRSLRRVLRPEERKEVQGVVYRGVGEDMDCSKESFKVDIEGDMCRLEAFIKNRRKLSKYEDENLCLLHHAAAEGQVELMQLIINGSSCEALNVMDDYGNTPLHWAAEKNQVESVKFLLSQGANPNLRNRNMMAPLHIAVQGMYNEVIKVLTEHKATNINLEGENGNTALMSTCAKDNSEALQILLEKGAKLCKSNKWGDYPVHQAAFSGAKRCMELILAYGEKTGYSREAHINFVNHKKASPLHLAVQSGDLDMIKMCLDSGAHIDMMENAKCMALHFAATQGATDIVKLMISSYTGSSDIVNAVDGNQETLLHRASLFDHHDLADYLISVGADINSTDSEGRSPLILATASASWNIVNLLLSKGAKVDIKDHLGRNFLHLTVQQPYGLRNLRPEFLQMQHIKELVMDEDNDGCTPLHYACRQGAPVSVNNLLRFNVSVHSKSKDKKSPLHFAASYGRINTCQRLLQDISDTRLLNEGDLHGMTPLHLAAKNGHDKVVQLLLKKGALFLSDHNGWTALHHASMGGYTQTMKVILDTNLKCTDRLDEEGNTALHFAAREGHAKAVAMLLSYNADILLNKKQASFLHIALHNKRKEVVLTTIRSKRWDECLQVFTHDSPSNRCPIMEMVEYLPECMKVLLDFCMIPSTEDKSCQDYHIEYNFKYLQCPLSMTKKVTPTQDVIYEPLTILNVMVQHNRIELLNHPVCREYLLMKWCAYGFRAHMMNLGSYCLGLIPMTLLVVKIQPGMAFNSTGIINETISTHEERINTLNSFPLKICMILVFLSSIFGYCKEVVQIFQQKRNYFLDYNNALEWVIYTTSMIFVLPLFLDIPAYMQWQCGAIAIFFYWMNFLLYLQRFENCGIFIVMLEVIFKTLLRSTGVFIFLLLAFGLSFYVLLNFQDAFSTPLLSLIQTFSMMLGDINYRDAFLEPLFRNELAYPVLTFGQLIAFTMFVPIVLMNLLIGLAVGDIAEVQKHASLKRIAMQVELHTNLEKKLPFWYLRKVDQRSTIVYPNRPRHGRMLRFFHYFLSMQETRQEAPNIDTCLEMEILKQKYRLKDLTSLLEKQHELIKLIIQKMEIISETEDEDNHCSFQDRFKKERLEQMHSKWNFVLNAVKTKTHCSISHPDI
assay: Antagonist activity at rat recombinant TRPA1 expressed in HEK293 cells assessed as AITC-induced increase of calcium influx preincubated for 5 mins by Fluo-4AM dye based fluorescence assay
recorded-endpoint: IC50

// IC50 lookup, key: `CCCCCCC(C)(C)c1cc(OC)cc(OCCCCCCCC(=O)NC2CC2)c1` > 100 µM

----------
Kindly state pKi for each of the entries shown.
system-tested: Cannabinoid receptor 1 (Homo sapiens, UniProt P21554)
Sequence (P21554 whole entry): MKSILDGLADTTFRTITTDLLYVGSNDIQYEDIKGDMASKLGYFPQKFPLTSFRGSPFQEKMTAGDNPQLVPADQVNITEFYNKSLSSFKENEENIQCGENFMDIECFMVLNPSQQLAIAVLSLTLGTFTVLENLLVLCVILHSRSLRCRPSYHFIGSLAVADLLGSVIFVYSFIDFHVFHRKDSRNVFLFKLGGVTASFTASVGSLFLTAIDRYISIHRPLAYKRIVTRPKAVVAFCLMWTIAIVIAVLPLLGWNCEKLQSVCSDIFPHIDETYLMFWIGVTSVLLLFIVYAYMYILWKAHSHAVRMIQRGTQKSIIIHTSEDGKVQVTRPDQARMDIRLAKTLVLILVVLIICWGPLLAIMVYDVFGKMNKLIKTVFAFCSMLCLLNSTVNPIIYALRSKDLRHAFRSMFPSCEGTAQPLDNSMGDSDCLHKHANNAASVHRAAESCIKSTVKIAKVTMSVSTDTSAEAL
assay: Displacement of [3H]-CP55940 from human recombinant CB1 receptor expressed in HEK cell membrane
Give bare numbers, as −log10 of the molar value.

Study these solved cases before continuing.
| smiles-notation | recorded-endpoint | recorded-number |
| --- | --- | --- |
| CCCCCCC(C)(C)c1cc(OC)cc(OCCCCCCCC(=O)NC2CC2)c1 | pKi | 8.96 |
| CCCCCc1cc(OC)cc(OCCCCCCCCCCC(=O)NC(CO)CO)c1 | pKi | 6.46 |

Each compound below has a recorded value; state its pKi.
1. CCCCCCC(C)(C)c1cc(OC)cc(OCCCCCCCCCCC(=O)NCC2CC2)c1
2. CCCCCc1cc(OCC)cc(OCCCCCCCCCCC(=O)NC2CC2)c1
3. CCCCCc1cc(OC)cc(OCCCCCCCCCCC(=O)NCCO)c1

[5.50, 7.93, 7.06]

----------
Kindly state Selectivity ratio for each of the entries shown.
Species on record: Homo sapiens
assay: Selectivity ratio of Ki for displacement of [3H]-CP55940 from human recombinant CB1 receptor expressed in HEK293 cell membrane to Ki for displacement of [3H]-CP55940 from human recombinant CB2 receptor expressed in HEK293 cell membrane
One number for each entry.

Study these solved cases before continuing.
| smiles-notation | recorded-endpoint | recorded-number |
| --- | --- | --- |
| CCCCCc1cc(OCCCCCCCCCCC(=O)NC2CC2)cc(OC(C)C)c1 | Selectivity ratio | 7.7 |
| CCCCCCC(C)(C)c1cc(OC)cc(OCCCCCCCC(=O)NCCO)c1 | Selectivity ratio | 0.7 |
| CCCCCCC(C)(C)c1cc(OC)cc(OCCCCCCCCCCC(=O)NCCO)c1 | Selectivity ratio | 30 |
| CCCCCCC(C)(C)c1cc(OC)cc(OCCCCCCCCCCC(=O)NCC2CC2)c1 | Selectivity ratio | 9.9 |
| CCCCCCC(C)(C)c1cc(OC)cc(OCCCCCCCC(=O)NC2CC2)c1 | Selectivity ratio | 0.3 |

Each compound below has a recorded value; state its Selectivity ratio.
1. C=CCNC(=O)CCCCCCCCCCOc1cc(CCCCC)cc(OC)c1
2. CCCCCCc1ccc(OC)cc1OCCCCCCCCCCC(=O)NCC1CC1
3. CCCCCc1cc(OC)cc(OCCCCCCCC(=O)NCCO)c1
4. CCCCCCC(C)(C)c1cc(OC)cc(OCCCCCCCCCCC(=O)NC2CC2)c1
5. C=CCNC(=O)CCCCCCCOc1cc(OC)cc(C(C)(C)CCCCCC)c1
6. CCCCCc1cc(OC)cc(OCCCCCCCCCCC(=O)NCC2CC2)c1
7. CCCCCCC(C)(C)c1cc(OC)cc(OCCCCCCCC(=O)NCC(F)(F)F)c1

1: 3.5; 2: 11.1; 3: 1.8; 4: 10.7; 5: 0.2; 6: 28.9; 7: 0.6

----------
system-tested: Cannabinoid receptor 1 (Homo sapiens)
assay: Displacement of [3H]-CP55940 from human recombinant CB1 receptor expressed in HEK cell membrane
recorded-endpoint: pKi
Answers are plain numbers, as −log10 of the molar value.

Study these solved cases before continuing.
| smiles-notation | pKi |
| --- | --- |
| CCCCCc1cc(OC)cc(OCCCCCCCCCCC(=O)NCC(F)(F)F)c1 | 7.12 |
| CCCCCc1cc(OC)cc(OCCCCCCCC(=O)NCCO)c1 | 7.12 |
| CCCCCc1cc(OC)cc(OCCCCCCCCCCC(=O)NCC2CC2)c1 | 6.53 |
| C=CCNC(=O)CCCCCCCOc1cc(OC)cc(C(C)(C)CCCCCC)c1 | 8.12 |
| CCCCCc1cc(OC)cc(OCCCCCCCCCCC(=O)NC2CC2)c1 | 8.46 |
| CCCCCCC(C)(C)c1cc(OC)cc(OCCCCCCCC(=O)NCCO)c1 | 7.05 |

Each compound below has a recorded value; state its pKi.
1. CCCCCc1cc(OCCCC)cc(OCCCCCCCCCCC(=O)NC2CC2)c1
2. CCCCCc1cccc(OCCCCCCCCCCC(=O)NC2CC2)c1
3. CCCCCCC(C)(C)c1cc(OC)cc(OCCCCCCCCCCC(=O)NCCO)c1
4. CCCCCCC(C)(C)c1cc(OC)cc(OCCCCCCCCCCC(=O)NC2CC2)c1
5. C=CCOc1cc(CCCCC)cc(OCCCCCCCCCCC(=O)NC2CC2)c1

1. 7.95
2. 8.23
3. 5.50
4. 6.55
5. 7.87

Each compound below has a recorded value; state its pKi.
1. C=CCNC(=O)CCCCCCCCCCOc1cc(CCCCC)cc(OC)c1
2. CCCCCCC(C)(C)c1cc(OC)cc(OCCCCCCCC(=O)NCC(F)(F)F)c1
3. CCCCCc1cc(OCCCCCCCCCCC(=O)NC2CC2)cc(OC(C)C)c1
4. CCCCCCc1ccc(OCCCCCCCCCCC(=O)NCC2CC2)cc1OC
5. CCCCCc1cc(OC)cc(OCCCCCCCCCCC(=O)Nc2ccccc2)c1

1: 7.63; 2: 7.27; 3: 7.68; 4: 5.49; 5: 6.07

// pKi lookup, key: `CCCCCCc1ccc(OC)cc1OCCCCCCCCCCC(=O)NCC1CC1` 6.16

----------
system-tested: Transient receptor potential cation channel subfamily A member 1 (Rattus norvegicus, UniProt Q6RI86)
assay: Activation of rat recombinant TRPA1 expressed in HEK293 cells assessed as calcium influx preincubated for 5 mins by Fluo-4AM dye based fluorescence assay
recorded-endpoint: EC50 (µM)
Numbers only, in µM.

// EC50 lookup, key: `CCCCCCC(C)(C)c1cc(OC)cc(OCCCCCCCC(=O)NC2CC2)c1` 11.1

----------
system-tested: Cannabinoid receptor 2 (Homo sapiens, UniProt P34972)
Sequence (P34972 whole entry): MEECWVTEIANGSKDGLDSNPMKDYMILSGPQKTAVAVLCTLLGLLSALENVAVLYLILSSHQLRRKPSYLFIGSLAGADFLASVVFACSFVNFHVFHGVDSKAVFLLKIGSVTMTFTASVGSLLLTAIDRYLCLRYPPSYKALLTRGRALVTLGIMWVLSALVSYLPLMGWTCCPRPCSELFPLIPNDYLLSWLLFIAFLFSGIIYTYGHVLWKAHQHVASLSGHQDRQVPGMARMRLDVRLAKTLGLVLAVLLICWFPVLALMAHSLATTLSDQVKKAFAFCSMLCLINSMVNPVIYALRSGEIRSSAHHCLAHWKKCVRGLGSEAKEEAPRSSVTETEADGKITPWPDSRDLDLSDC
assay: Displacement of [3H]-CP55940 from human recombinant CB2 receptor expressed in HEK cell membrane
Kindly state Ki for each of the entries shown.
Give bare numbers, in nM.

| smiles-notation | unit-tag | Ki |
| --- | --- | --- |
| CCCCCCc1ccc(OCCCCCCCCCCC(=O)NCC2CC2)cc1OC | nM | 48.8 |

Each compound below has a recorded value; state its Ki.
1. CCCCCc1cc(OC)cc(OCCCCCCCCCCC(=O)NCCO)c1
2. CCCCCCc1ccc(OC)cc1OCCCCCCCCCCC(=O)NCC1CC1

1. 33.2
2. 62.6

Each compound below has a recorded value; state its Ki.
1. CCCCCc1cc(OC)cc(OCCCCCCCCCCC(=O)Nc2ccccc2)c1
2. CCCCCCC(C)(C)c1cc(OC)cc(OCCCCCCCCCCC(=O)NC2CC2)c1

1: 309; 2: 26.1

----------
Kindly state log10(Ki) for each of the entries shown.
system-tested: Cannabinoid receptor 2 (Homo sapiens, UniProt P34972)
assay: Displacement of [3H]-CP55940 from human recombinant CB2 receptor expressed in HEK cell membrane
Recall that a logarithmic scale is used here: each number is log10 of Ki in nM.

| smiles-notation | log10(Ki) |
| --- | --- |
| CCCCCc1cc(OC)cc(OCCCCCCCCCCC(=O)NCC(F)(F)F)c1 | 1.36 |
| CCCCCc1cccc(OCCCCCCCCCCC(=O)NC2CC2)c1 | 0.54 |
| CCCCCCC(C)(C)c1cc(OC)cc(OCCCCCCCCCCC(=O)NCC2CC2)c1 | 2.51 |
| C=CCNC(=O)CCCCCCCOc1cc(OC)cc(C(C)(C)CCCCCC)c1 | 1.49 |
| CCCCCCC(C)(C)c1cc(OC)cc(OCCCCCCCC(=O)NCC(F)(F)F)c1 | 1.97 |

With those in mind, consider the next compound.
What measured log10(Ki) is associated with `CCCCCc1cc(OCCCCCCCCCCC(=O)NC2CC2)cc(OC(C)C)c1` on Cannabinoid receptor 2 (Homo sapiens, UniProt P34972)? 0.43
